Data credit: patent US20120058118A1

Biological target: T1, human A-beta(1-40) peptide, monomeric (BAM) (human, biotin at the C-terminus in capture ELISA, SPR and TR-FRET; not biotinylated where coated directly (Example 7))
T1 construct: synthetic peptide (Anaspec), TFA/HFIP treated to give monomer; also called monomeric A-beta
Experiment: TR-FRET competition; labelled competitor not given
measured.property: pIC50
Give only the number. pIC50 is defined as minus log10 of concentration in molar units.

Read off the recorded pIC50 for ABII027 (VHH, humanized variant of ABII002) VHH: EVQLLESGGGLVQPGGSLRLSCAHSGPTFRTDTMGWFRQAPGKGREFVAAVTWNSGRINYADSVKGRFTISRDNSKNTAYLQMSSLRPEDTAVYYCAAHRFVVGGNRVEDWRYWGQGTLVTVSS 8.36

Determine from records and report pIC50 for ABII014 (VHH, humanized variant of ABII002) VHH: EVQLLESGGGLVLPGGSLRLSCVHSGPTFRTDTMGWFRQAPGKGREFVAAVTWNSGRINYADSVKGRFTVSRDNTRNAAYLQMSGLRDEDTAVYYCTAHRFVVGGNRVEDWRYWGQGTLVTVSS 8.89

Please give the documented pIC50 of ABII032 (VHH, humanized variant of ABII002) VHH: EVQLLESGGGLVQPGGSLRLSCVHSGPTFRTDTMGWFRQAPGKGREFVAAVTWNSGRINYADSVKGRFTISRDNSKNAAYLQMNSLRPEDTAVYYCAAHRFVVGGNRVEDWRYWGQGTLVTVSS 8.31

Tell me pIC50 reported for ABII061 (VHH, humanized variant of ABII050) VHH: EVQLLESGGGLVQPGGSLRLSCAASGRTFNNYNMGWFRQAPGKGREFVAAVSRSGVSTYYADSVKGRFTISRDNSKNTVYLQMNSLRPEDTAVYYCGAAYRGTAINVRRSYSSWGQGTLVTVSS 8.62

Let me know recorded pIC50 for ABII022 (VHH, humanized variant of ABII002) VHH: EVQLLESGGGLVQPGGSLRLSCAHSGPTFRTDTMGWFRQAPGKGREFVAAVTWNSGRINYADSVKGRFTISRDNSKNAVYLQMSSLRPEDTAVYYCAAHRFVVGGNRVEDWRYWGQGTLVTVSS , thanks. 7.80

Give recorded pIC50. ABII025 (VHH, humanized variant of ABII002) VHH: EVQLLESGGGLVQPGGSLRLSCAHSGPTFRTDTMGWFRQAPGKGREFVAAVTWNSGRINYADSVKGRFTISRDNSKNTVYLQMSSLRPEDTAVYYCAAHRFVVGGNRVEDWRYWGQGTLVTVSS 7.74

Give the value of pIC50 reported for the following: ABII036 (VHH, humanized variant of ABII002) VHH: EVQLLESGGGLVQPGGSLRLSCVHSGPTFRTDTMGWFRQAPGKGREFVAAVTWNSGRINYADSVKGRFTISRDNSKNTAYLQMSSLRPEDTAVYYCAAHRFVVGGNRVEDWRYWGQGTLVTVSS 8.46

Tell us which pIC50 value is on record for ABII057 (VHH, humanized variant of ABII050) VHH: EVQLLESGGGLVQPGGSLRLSCAASGRTFNNYNMGWFRQAPGKGREFVAAVSRSGVSTYYADSVKGRFTISRDNSKNTVYLQMNSLRPEDTAVYYCAAAYRGTAINVRRSYDSWGQGTLVTVSS 7.34
